// reported Ki per item
- test-target: GPIIb-IIIa (fibrinogen receptor, αIIbβ3) (Homo sapiens, UniProt P05106+P08514)
- Sequence (P08514 32-887 limits assumed): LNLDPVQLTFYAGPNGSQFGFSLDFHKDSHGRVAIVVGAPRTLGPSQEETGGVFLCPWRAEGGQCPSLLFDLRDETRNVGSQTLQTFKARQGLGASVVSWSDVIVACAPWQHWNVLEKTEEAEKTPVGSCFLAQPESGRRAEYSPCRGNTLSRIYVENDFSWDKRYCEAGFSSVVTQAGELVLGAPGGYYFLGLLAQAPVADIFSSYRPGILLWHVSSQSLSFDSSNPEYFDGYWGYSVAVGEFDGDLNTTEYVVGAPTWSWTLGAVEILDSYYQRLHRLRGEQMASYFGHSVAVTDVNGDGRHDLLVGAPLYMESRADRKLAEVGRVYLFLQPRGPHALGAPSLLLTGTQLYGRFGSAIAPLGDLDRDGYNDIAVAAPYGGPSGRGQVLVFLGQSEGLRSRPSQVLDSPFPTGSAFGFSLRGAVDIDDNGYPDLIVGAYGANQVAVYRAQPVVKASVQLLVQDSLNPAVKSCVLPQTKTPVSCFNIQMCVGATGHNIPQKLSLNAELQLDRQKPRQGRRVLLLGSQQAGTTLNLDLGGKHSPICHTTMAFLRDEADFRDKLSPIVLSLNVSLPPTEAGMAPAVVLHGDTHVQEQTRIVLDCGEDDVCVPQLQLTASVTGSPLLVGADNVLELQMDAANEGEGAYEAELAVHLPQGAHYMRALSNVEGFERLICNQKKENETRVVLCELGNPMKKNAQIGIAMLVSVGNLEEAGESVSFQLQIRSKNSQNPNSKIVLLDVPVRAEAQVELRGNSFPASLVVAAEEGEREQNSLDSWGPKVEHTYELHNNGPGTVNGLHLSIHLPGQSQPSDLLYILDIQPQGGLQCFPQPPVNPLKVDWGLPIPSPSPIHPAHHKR
- Sequence (P08514 891-1039 partner limits assumed): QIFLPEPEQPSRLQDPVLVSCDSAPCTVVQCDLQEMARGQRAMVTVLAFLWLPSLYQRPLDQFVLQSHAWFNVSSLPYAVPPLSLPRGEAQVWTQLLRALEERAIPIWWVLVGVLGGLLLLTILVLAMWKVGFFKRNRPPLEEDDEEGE
- Sequence (P05106 27-788): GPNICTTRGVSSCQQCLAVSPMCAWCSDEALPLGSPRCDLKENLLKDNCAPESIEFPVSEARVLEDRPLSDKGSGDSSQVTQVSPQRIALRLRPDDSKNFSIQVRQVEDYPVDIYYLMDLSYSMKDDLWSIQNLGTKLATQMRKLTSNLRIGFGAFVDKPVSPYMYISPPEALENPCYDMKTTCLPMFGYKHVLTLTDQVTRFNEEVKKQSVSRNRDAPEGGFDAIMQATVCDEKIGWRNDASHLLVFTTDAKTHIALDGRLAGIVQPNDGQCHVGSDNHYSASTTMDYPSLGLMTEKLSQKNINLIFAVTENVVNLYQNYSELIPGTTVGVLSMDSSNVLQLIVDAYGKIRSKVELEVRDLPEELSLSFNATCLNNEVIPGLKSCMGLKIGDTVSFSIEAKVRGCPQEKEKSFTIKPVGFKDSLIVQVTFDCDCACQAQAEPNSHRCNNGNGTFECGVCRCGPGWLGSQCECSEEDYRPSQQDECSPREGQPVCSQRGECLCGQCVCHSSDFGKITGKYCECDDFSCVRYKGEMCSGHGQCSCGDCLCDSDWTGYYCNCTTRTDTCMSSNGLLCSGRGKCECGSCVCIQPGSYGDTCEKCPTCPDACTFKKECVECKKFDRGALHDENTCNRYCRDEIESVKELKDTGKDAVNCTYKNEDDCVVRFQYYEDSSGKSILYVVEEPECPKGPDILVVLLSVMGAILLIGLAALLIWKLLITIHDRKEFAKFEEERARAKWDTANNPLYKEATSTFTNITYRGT
- measurement-protocol: Competitive binding to GPIIb-IIIa with [3H]-SK&F-107260 (inhibition of RGD-mediated GPIIb-IIIa binding)
Answer format: numeric, µM implied, no suffix.

Study these solved cases before continuing.
CN1Cc2cc(C(=O)N3CCNCC3)ccc2NC(CC(=O)O)C1=O (racemic) [Example 10]    2.13
CN(CC(O)c1ccccc1)C(=O)c1ccc2c(c1)CN(C)C(=O)C(CC(=O)O)C2 (racemic) [Example 16]    28
CN1Cc2cc(NC(=O)CNc3ccccn3)ccc2CC(CC(=O)O)C1=O (racemic) [Example 18]    30
CN1Cc2cc(NC(=O)CN)ccc2CC(CC(=O)O)C1=O (racemic) [Example 20]    45
Nc1ccc(NC(=O)c2ccc3c(c2)CN(CCc2ccccc2)C(=O)C(CC(=O)O)N3)cn1 (racemic) [Example 3]    110
CN1Cc2cc(C(=O)NCc3cccnc3)ccc2NC(CC(=O)O)C1=O (racemic) [Example 22]    27

Entry CN1Cc2cc(NC(=O)CCN)ccc2CC(CC(=O)O)C1=O (racemic) [Example 21] ; Ki = 52

Entry CN1Cc2cc(C(=O)N3CCC(N4CCCCC4)CC3)ccc2NC(CC(=O)O)C1=O (racemic) [Example 11] ; Ki = 20.1

Entry CN1Cc2cc(NC(=O)[C@@H](N)Cc3ccccc3)ccc2CC(CC(=O)O)C1=O (mixture of isomers) [Example 15] ; Ki = 37.5

Entry CN1Cc2cc(C(=O)N3CCN(Cc4ccccc4)CC3)ccc2NC(CC(=O)O)C1=O (racemic) [Example 13] ; Ki = 15.4

Entry CN1Cc2cc(NC(=O)OCc3ccccc3)ccc2CC(CC(=O)O)C1=O (racemic) [Example 6] ; Ki = 17.5
